Target: Delta-type opioid receptor (Rattus norvegicus, UniProt P33533)
Sequence (P33533 whole entry): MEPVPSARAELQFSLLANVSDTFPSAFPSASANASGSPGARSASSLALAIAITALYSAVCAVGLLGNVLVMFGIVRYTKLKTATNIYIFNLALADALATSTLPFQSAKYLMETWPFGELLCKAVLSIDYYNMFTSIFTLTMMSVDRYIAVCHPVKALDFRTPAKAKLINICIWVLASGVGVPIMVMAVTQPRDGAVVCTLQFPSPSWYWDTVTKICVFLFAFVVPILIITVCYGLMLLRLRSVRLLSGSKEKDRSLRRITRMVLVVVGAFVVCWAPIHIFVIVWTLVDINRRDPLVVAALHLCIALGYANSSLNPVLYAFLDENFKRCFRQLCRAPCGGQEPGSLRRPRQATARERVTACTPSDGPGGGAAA
Assay: Displacement of [3H]DADLE from Opioid receptor delta 1 of rat brain membranes (DAMGO quenching mu receptor)
Type: cell membranes, Membrane
Measured Ki, listed per entry.
Readout type: Ki (nM)

>>> endpoint_value("Oc1ccc2c3c1OC1c4[nH]c5ccc(-c6ccccc6)cc5c4C[C@@]4(O)[C@@H](C2)N(CC2CC2)CC[C@]314 (stereo partly drawn)")
15.8
>>> endpoint_value("Oc1ccc2c3c1O[C@H]1c4[nH]c5ccccc5c4C[C@@]4(O)[C@@H](C2)N(CC2CC2)CC[C@]314 [NALTRINDOLE]")
0.29
>>> endpoint_value("Oc1ccc2c3c1OC1c4[nH]c5cc(Oc6ccccc6)ccc5c4C[C@@]4(O)[C@@H](C2)N(CC2CC2)CC[C@]314 (stereo partly drawn)")
6.4

----------
Biological target: Delta-type opioid receptor (Mus musculus)
Test: Displacement of DPDPE from Opioid receptor delta 1 of mouse vas deferens (MVD) smooth muscle
Please assign NOT MET whenever Ratio is at or above 100, and MET whenever it is below.

>>> class_name("Oc1ccc2c3c1OC1c4[nH]c5cccc(-c6ccccc6)c5c4C[C@@]4(O)[C@@H](C2)N(CC2CC2)CC[C@]314 (stereo partly drawn)")
"MET"
>>> class_name("Oc1ccc2c3c1OC1c4[nH]c5c(OCc6ccccc6)cccc5c4C[C@@]4(O)[C@@H](C2)N(CC2CC2)CC[C@]314 (stereo partly drawn)")
"NOT MET"
>>> class_name("Oc1ccc2c3c1OC1c4[nH]c5cc(OCc6ccccc6)ccc5c4C[C@@]4(O)[C@@H](C2)N(CC2CC2)CC[C@]314 (stereo partly drawn)")
"NOT MET"
>>> class_name("Oc1ccc2c3c1OC1c4[nH]c5ccc(-c6ccccc6)cc5c4C[C@@]4(O)[C@@H](C2)N(CC2CC2)CC[C@]314 (stereo partly drawn)")
"NOT MET"
>>> class_name("Oc1ccc2c3c1OC1c4[nH]c5ccc(OCc6ccccc6)cc5c4C[C@@]4(O)[C@@H](C2)N(CC2CC2)CC[C@]314 (stereo partly drawn)")
"NOT MET"
>>> class_name("Oc1ccc2c3c1OC1c4[nH]c5cc(-c6ccccc6)ccc5c4C[C@@]4(O)[C@@H](C2)N(CC2CC2)CC[C@]314 (stereo partly drawn)")
"MET"
>>> class_name("Oc1ccc2c3c1OC1c4[nH]c5ccc(Oc6ccccc6)cc5c4C[C@@]4(O)[C@@H](C2)N(CC2CC2)CC[C@]314 (stereo partly drawn)")
"MET"
>>> class_name("Oc1ccc2c3c1OC1c4[nH]c5c(Oc6ccccc6)cccc5c4C[C@@]4(O)[C@@H](C2)N(CC2CC2)CC[C@]314 (stereo partly drawn)")
"NOT MET"

----------
Biological target: Kappa-type opioid receptor (Cavia porcellus, UniProt P41144)
Sequence (P41144 whole entry): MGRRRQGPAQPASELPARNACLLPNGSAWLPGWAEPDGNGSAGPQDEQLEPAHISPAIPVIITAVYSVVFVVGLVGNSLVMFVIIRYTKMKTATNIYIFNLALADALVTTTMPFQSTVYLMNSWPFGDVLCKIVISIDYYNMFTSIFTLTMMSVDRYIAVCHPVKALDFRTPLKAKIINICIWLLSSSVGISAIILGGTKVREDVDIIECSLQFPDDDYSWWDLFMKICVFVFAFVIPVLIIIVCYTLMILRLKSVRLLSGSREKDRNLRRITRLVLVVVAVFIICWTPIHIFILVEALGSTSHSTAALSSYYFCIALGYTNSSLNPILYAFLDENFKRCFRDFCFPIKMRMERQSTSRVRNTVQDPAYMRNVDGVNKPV
Experiment: Displacement of [125I]OXY from Opioid receptor kappa 2b of guinea pig brain membranes (pretreated with BIT(mu) and FIT(delta) and in the presence of (-)U50,488)
pKi: −log10 of the molar value.
Measured pKi, listed per entry.
Readout type: pKi

>>> endpoint_value("Oc1ccc2c3c1OC1c4[nH]c5cccc(OCc6ccccc6)c5c4C[C@@]4(O)[C@@H](C2)N(CC2CC2)CC[C@]314 (stereo partly drawn)")
6.96
>>> endpoint_value("Oc1ccc2c3c1OC1c4[nH]c5c(-c6ccccc6)cccc5c4C[C@@]4(O)[C@@H](C2)N(CC2CC2)CC[C@]314 (stereo partly drawn)")
7.05
>>> endpoint_value("Oc1ccc2c3c1OC1c4[nH]c5cc(OCc6ccccc6)ccc5c4C[C@@]4(O)[C@@H](C2)N(CC2CC2)CC[C@]314 (stereo partly drawn)")
6.34
